This collection of values is drawn from PubChem BioAssay.

Assay Comment: reversal of MRP1-mediated doxorubicin resistance, pilot screen, H69AR cells, doxorubicin co-treatment (AID 601)
Condition Summary: H69AR cells + 2 uM doxorubicin, CellTiter-Glo, 72 h; measured here: viability with 2 uM doxorubicin; at 10 µM; stronger effect = lower value
# reported viability; entries follow
Assay Readout: viability (%)

CC(C)N(Cc1nc(-c2ccc(Cl)cc2)no1)C(=O)CN(C)S(=O)(=O)c1ccc(Cl)cc1 :: 86.1
O=C(N1CCN(c2ccccc2F)CC1)C12CC3CC(CC(C3)C1)C2 :: 98.7
CC(=O)/C(C[N+]1(C)CCCCC1)=N\O :: 85.6
CCN(CC)S(=O)(=O)c1ccc2oc(C(=O)O)c(C)c2c1 :: 92.2
O=c1[nH]c(NCc2ccccc2)nc2c1CCCC2 :: 96.5
CCC(C(=O)Nc1ncccn1)(C(F)(F)F)C(F)(F)F :: 94.6
CC1CCN(S(=O)(=O)c2ccc(Br)s2)CC1 :: 81.1
O=c1c(-c2ccc(F)cc2)coc2c3c(ccc12)OCCO3 :: 86.7
COC(=O)c1ccc(CSc2nc3ccccc3c(=O)n2Cc2ccco2)o1 :: 92.3
O=C(CN1CCN(c2ncc(C(F)(F)F)cc2Cl)CC1)Nc1ccc2c(c1)OCO2 :: 92.9
Cc1ccc(NC(=O)CSc2nnc(-c3ccc(S(=O)(=O)N4CCOCC4)cc3)n2C)cc1 :: 94.6
CC(=O)NCc1cccc(CNC(C)=O)n1 :: 90.1
COc1cc(C(=O)N2CCCC(c3nc(-c4cccs4)no3)C2)cc(OC)c1OC (configuration not stated) :: 69.4
O=C(C1CCCO1)N1CCN(S(=O)(=O)c2ccccc2)CC1 (configuration not stated) :: 105
CC(CN1CCCCC1)OC(=O)c1ccc(Cl)cc1Cl (configuration not stated) :: 85.9
CCOc1cc(NC(=O)c2ccco2)c(OCC)cc1NC(=O)CCc1ccc(OC)cc1 :: 88.6
O=C(COC(=O)c1cnccn1)c1ccc(OC(=O)c2ccccc2)cc1 :: 98.3
CCOC(=O)c1c(NC(=O)Cn2c(=O)oc3ccccc32)oc(C)c1C(C)=O :: 95.1
Cc1ccc(CCNC(=O)C2CCC(=O)N2C2CCCC2)cc1 (configuration not stated) :: 81.9
CN(C)CC(=O)N1c2ccccc2CCc2ccc(NC(=O)c3ccc(N)cc3)cc21 :: 88.7
CCN(CC(=O)NC(=O)NCc1ccco1)Cc1nc2ccccc2c(=O)[nH]1 :: 77.3
COC(=O)c1ccc2c(=O)n(Cc3ccco3)c(SCC(=O)Nc3ccc(C)c(Cl)c3)nc2c1 :: 10.3

----------
Measured differential viability (reversal) by item
Assay Comment: reversal of MRP1-mediated doxorubicin resistance, pilot screen, H69AR cells, doxorubicin co-treatment (AID 601)
Condition Summary: H69AR cells + 2 uM doxorubicin, CellTiter-Glo, 72 h; at 10 µM; stronger effect = higher value
Assay Readout: differential viability (reversal) (%)

O=C(CCSc1ccccc1)Nc1ccc(S(=O)(=O)N2CCOCC2)cc1 :: 12.5
COc1ccc(C2C(C(C)=O)=C(O)C(=O)N2C)c(OC)c1 (stereo not drawn) :: 22.1
CCOc1ccccc1N1CCN(S(=O)(=O)c2cccc3nsnc23)CC1 :: 4.72
Oc1cccc2ccc(Nc3ccccn3)nc12 :: 0.495
O=C(NCC1CCCO1)c1ccc(N2CCCCC2)nc1 (stereo not drawn) :: 4.52
CC(C(=O)N1c2ccc(F)cc2CCC1C)N1C(=O)c2ccccc2C1=O (stereo not drawn) :: 11.5
CS(=O)(=O)N1CCN(C(=O)c2ccc(-c3ccccc3)cc2)CC1 :: 10.2
COc1ccc(S(=O)(=O)Cc2ccc(C(=O)N3CCN(Cc4ccccc4)CC3)o2)cc1 :: -0.78
COCc1[nH]nc2c1C(C1C=CCCC1)C(C#N)=C(N)O2 (stereo not drawn) :: -4.19
CCOC(=O)N1CCN(C(=O)C(NS(=O)(=O)c2cccc3nsnc23)c2ccccc2)CC1 (stereo not drawn) :: -6.95
CC(=O)NCCC(=O)Nc1ccc(C)c(F)c1 :: -17
COc1ccccc1N1CCN(C(CNS(=O)(=O)c2cc(F)ccc2F)c2cccnc2)CC1 (stereo not drawn) :: 2.69
Cc1noc(C)c1CSc1nc2ccccc2s1 :: -3.12
Oc1c(I)cc(I)c2cccnc12 :: -6.25
Cc1nnc(NCc2n[nH]c(=O)c3ccccc23)c2ccccc12 :: -14.8
CCCc1nc2ccccc2c2nc(N)nn12 :: 12.3
CCOc1ccc(N(C)S(=O)(=O)c2ccc3[nH]cc(C(=O)NCC4CCCO4)c(=O)c3c2)cc1 (stereo not drawn) :: 5.04
CN(CC(O)COc1ccc(OCC(O)CN(C)C2CCCCC2)cc1)C1CCCCC1 (stereo not drawn) :: 10.4
COC(=O)c1ccccc1NC(=O)N1CCCC1 :: 13.2
Cc1ccc(C)c(N(CC(=O)NC2CCCC2)C(=O)CCCC(=O)Nc2ccccn2)c1 :: 13.7
CCOC(=O)C(C)C1(O)c2ccccc2-c2ncccc21 (stereo not drawn) :: 13
COc1ccc(S(=O)(=O)NCCCN2CCOCC2)c2ccccc12 :: 5.68
CCOC(=O)c1[nH]c(C)c(C(=O)Nc2ccccc2C)c1C :: -46.6

----------
# inhibition per entry
Assay Comment: 384-well plate pilot, post-Golgi transport modulator project, inhibition of yeast transport mutant growth (AID 636)
Condition Summary: absorbance 615 nm, about 18 h, stronger effect = higher value
Assay Readout: inhibition (%)

CS(=O)(=O)N(CC(=O)NC1CC1)c1cccc(F)c1 :: -5.19
Nc1cccc(C(=O)O)c1 :: 1.82
CCCCCC(=O)N(CN1C(=O)CCC1=O)c1ccccc1 :: -7.3
Cc1cc(C)n(C(=O)CCCCCC(=O)n2nc(C)cc2C)n1 :: -9.32
[O-][n+]1onc2c1CCc1nnc(-c3ccccc3)cc1-2 :: -1.18
COc1ccccc1OC(=O)c1ccc(SC)cc1OC :: 1.05
Cc1nc(SCC(=O)c2c[nH]c3ccccc23)n[nH]1 :: -7.5

----------
Listed here are compounds together with their documented viability.
Assay Comment: reversal of MRP1-mediated doxorubicin resistance, pilot screen, H69AR cells, doxorubicin co-treatment (AID 601)
Condition Summary: H69AR cells, CellTiter-Glo, 72 h; compound alone cytotoxicity; at 10 µM
Assay Readout: viability (%)

CCn1cnc2cc(NCc3cccc(OC)c3O)ccc21 :: 92.3
Cc1nnc(SC(=O)N2c3ccccc3Sc3ccccc32)s1 :: 1.79
COc1ccc(C(c2nnnn2C2CCCC2)N2CCC(C)CC2)c(OC)c1 (configuration not stated) :: 87.8
Cn1c(CN2CCCCC2)nc2cc(NC(=O)c3ccccc3)ccc21 :: 88.5
Cc1ccc(C2CC(c3cccc(Br)c3)Nc3nnnn32)cc1 (configuration not stated) :: 91.7
O=C(O)c1ccc(COc2c(F)c(F)c(F)c(F)c2F)o1 :: 92.9
COCCNC(=O)C(c1ccc(C)o1)N(Cc1cccs1)C(=O)c1snc(C(N)=O)c1N (configuration not stated) :: 86.4
Cc1noc(C)c1CSc1nnc2scc(-c3ccc(Cl)cc3)n12 :: 91.6
CCS(=O)(=O)N1CCC(C(=O)N2CCOCC2)CC1 :: 98.5
Cc1cc(NC(=O)C(C)(C)C)no1 :: 99.2
CSc1nsc(SCC(=O)N2CCc3ccccc32)n1 :: 96.8
O=C(CSc1nc2ccccc2o1)N1CCN(c2ccc(Cl)cc2)CC1 :: 87.4

----------
Assay Comment: reversal of MRP1-mediated doxorubicin resistance, pilot screen, H69AR cells, doxorubicin co-treatment (AID 601)
Condition Summary: H69AR cells + 2 uM doxorubicin, CellTiter-Glo, 72 h; measured here: viability with 2 uM doxorubicin; at 10 µM; stronger effect = lower value
// classify: if (viability < 90%) met else not met

COc1ccc(Cl)cc1N1CCN(CCNC(=O)Nc2ccccc2C)CC1 :: met
CCCC1CCC(C(=O)Nn2cnc3ccccc3c2=O)CC1 (stereo not given) :: met
CC(C)[C@H](NC(=O)OC(C)(C)C)c1nnc(S(=O)(=O)Cc2c(F)cccc2Cl)o1 :: met
O=C(CC(SCCO)c1ccc2c(c1)OCO2)c1ccco1 (stereo not given) :: met
Cn1c(=O)c2c(nc(SCC(=O)NCc3ccc4c(c3)OCO4)n2Cc2ccccc2)n(C)c1=O :: not met
COc1cc(C)c(Br)cc1S(=O)(=O)N1CCOCC1 :: met

----------
Assay Comment: HUVEC growth inhibition – cell-based, human, primary screen (AID 575);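 further: 100% = median of untreated cell wells with 0.1% DMSO on each plate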
Condition Summary: HUVEC proliferation, CellTiter-Glo luminescence, 72 h; at 10 µM; stronger effect = lower value
Listed here: items and their measured viability.
Assay Readout: viability (%)

CCCCNc1cc(C(=O)O)cc(S(N)(=O)=O)c1Oc1ccccc1 :: 87
CCOC(=O)C1CCCN(Cc2nc(N)nc(Nc3ccccc3)n2)C1 (configuration not stated) :: 92.8
O=C(Nc1nc(-c2ccccc2)cs1)C1CCCO1 (configuration not stated) :: 101
C=CCn1c(SCc2ccc3nonc3c2)nnc1-c1cccs1 :: 85.8
CCC(=O)Nc1cc(Cl)ccc1N1CCN(C(=O)CC)CC1 :: 92.6
CCOC(=O)Cc1csc(NC(=O)CSc2nnc(-c3ccncc3)n2Cc2ccco2)n1 :: 94.1
O=C(Nc1sccc1C(=O)NCc1ccco1)c1cccnc1 :: 96.8
C1COC(NC(C2CC2)C2CC2)=N1 :: 77.3
C=C(C)COc1ccc(-c2n[nH]c(C)c2-c2ccccc2)c(O)c1 :: 2.96
COC(=O)c1ccccc1NC(=O)C12CCC(C)(C(=O)O1)C2(C)C (configuration not stated) :: 87.6
CNc1nnc(-c2cccc(N(C)C)c2)s1 :: 95.9
COC(=O)CN(c1ccc(F)cc1)S(=O)(=O)c1ccccc1 :: 122
